tested on: KRAS patient-derived spheroids with HUVEC/MSC, viability; experiment: Anticancer human tumor 323965-272-R-J2-PDC patient-derived pancreatic carcinoma cell line growth inhibition [KRAS2]; conditions: second compound 3.16 µM; first compound 0.1 µM; active compounds read low
experimental endpoint: viability, T/C

Challenge: Write viability, T/C of CC(C)n1nc(-c2ccc3oc(N)nc3c2)c2c(N)ncnc21 + COc1cc2nc(C)nc(NC(C)c3cc(N)cc(C(F)(F)F)c3)c2cc1OC1CCOC1 ; system used: KRAS patient-derived spheroids with HUVEC/MSC, viability
Response given: 11.8%

Challenge: Give viability, T/C; test system KRAS patient-derived spheroids with HUVEC/MSC, viability; compound COC(=O)c1ccc2c(C(=Nc3ccc(N(C)C(=O)CN4CCN(C)CC4)cc3)c3ccccc3)c(O)[nH]c2c1 + C=CC(=O)N1CCN(c2nc(=O)n(-c3c(C)ccnc3C(C)C)c3nc(-c4c(O)cccc4F)c(F)cc23)C(C)C1
Response given: 56.6%

Challenge: Please tell me the measured viability, T/C for CC(=O)OC12COC1CC(O)C1(C)C(=O)C(O)C3=C(C)C(OC(=O)C(O)C(NC(=O)OC(C)(C)C)c4ccccc4)CC(O)(C(OC(=O)c4ccccc4)C21)C3(C)C (stereo not drawn) + COc1cc2nc(C)nc(NC(C)c3cc(N)cc(C(F)(F)F)c3)c2cc1OC1CCOC1 ; system: KRAS patient-derived spheroids with HUVEC/MSC, viability.
Response given: 18.8%

----------
system: KRAS patient-derived spheroids with HUVEC/MSC, viability; test: Anticancer human tumor 323965-272-R-J2-PDC cell line growth inhibition [KRAS2]; conditions: second compound 10 µM; first compound 0.316 µM; active compounds read low;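 note: spheroids exposed to agents for 7 days; 100% = DMSO vehicle control viability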
Could you please report measured viability, T/C for the items listed next?
Numeric only. Scale: %

Challenge: Fill: viability, T/C (KRAS patient-derived spheroids with HUVEC/MSC, viability) for this compound CC1OCC2(CCN(c3cnc(Sc4ccnc(N)c4Cl)c(N)n3)CC2)C1N (stereo unspecified) + CNCc1ccccc1-c1csc(C(C)Nc2nc(C)nc3cc(OC)c(OC)cc23)c1
Response given: 0.15

Challenge: Please report the measured viability, T/C for CCN1CCN(Cc2ccc(Nc3ncc(F)c(-c4cc(F)c5nc(C)n(C(C)C)c5c4)n3)nc2)CC1 + COc1cc2nc(C)nc(NC(C)c3cc(N)cc(C(F)(F)F)c3)c2cc1OC1CCOC1 tested on KRAS patient-derived spheroids with HUVEC/MSC, viability.
Response given: 39.9

Challenge: Would you please give the reported viability, T/C of O=C(c1cc(Cc2n[nH]c(=O)c3ccccc23)ccc1F)N1CCN(C(=O)C2CC2)CC1 + COc1cc2nc(C)nc(NC(C)c3cc(N)cc(C(F)(F)F)c3)c2cc1OC1CCOC1 with KRAS patient-derived spheroids with HUVEC/MSC, viability?
Response given: 78.8

Challenge: Give measured viability, T/C for CC1OCC2(CCN(c3cnc(Sc4ccnc(N)c4Cl)c(N)n3)CC2)C1N (stereo unspecified) + COc1cc2nc(C)nc(NC(C)c3cc(N)cc(C(F)(F)F)c3)c2cc1OC1CCOC1 (KRAS patient-derived spheroids with HUVEC/MSC, viability).
Response given: 17.5

Challenge: Given CCNC(=O)CC1N=C(c2ccc(Cl)cc2)c2cc(OC)ccc2-n2c(C)nnc21 (stereo unspecified) + CC1OCC2(CCN(c3cnc(Sc4ccnc(N)c4Cl)c(N)n3)CC2)C1N , report its viability, T/C on KRAS patient-derived spheroids with HUVEC/MSC, viability.
Response given: 14.9

Challenge: # return viability, T/C of CC(C)NCC(C(=O)N1CCN(c2ncnc3c2C(C)CC3O)CC1)c1ccc(Cl)cc1 (stereo unspecified) + C=CC(=O)N1CCN(c2nc(=O)n(-c3c(C)ccnc3C(C)C)c3nc(-c4c(O)cccc4F)c(F)cc23)C(C)C1 (system: KRAS patient-derived spheroids with HUVEC/MSC, viability)
Response given: 30.5
